# measurement target: (α4)3(β2)2 (LS isoform) α4β2 nAChR β2S133Vα4T183V (Homo sapiens, UniProt P17787+P43681, S133V/T183V)
# protocol description: Two-electrode voltage clamp, Xenopus oocytes, LS α4β2 nAChR β2S133Vα4T183V
observable: EC50

Complete the entry with EC50 for O=c1cccc2n1C[C@@H]1CNC[C@H]2C1 6.9 µM

---

# measurement target: (α4)3(β2)2 (LS isoform) α4β2 nAChR WT (Homo sapiens, UniProt P17787+P43681)
# Construct: expressed in transfected cells; host or cells: Xenopus laevis oocytes, nuclear injection of cDNA in plasmid pCI (10 α4 : 1 β2 for LS, 1 α4 : 10 β2 for HS)
# protocol description: Two-electrode voltage clamp, Xenopus oocytes expressing LS α4β2 nAChR, wild type
# Type: cell-based
# cond: read-out: EC50
observable: EC50 (µM)
Numbers only, in µM.

Complete the entry with EC50 for c1ccc2nc3c(nc2c1)C1CNCC3C1 [Isovarenicline 5] 26

---

# measurement target: 5-HT3A receptor (Homo sapiens, UniProt P46098)
# protocol description: FlexStation fluorescent membrane-potential dye assay, transfected HEK 293 cells
# Assay type: cell-based
# cond: pEC50, activation of 5-HT3A receptors, mean + SEM, n=4
observable: pEC50
Answers are plain numbers, as −log10 of the molar value.

Complete the entry with pEC50 for c1cnc2cc3c(cc2n1)[C@@H]1CNC[C@H]3C1 [Varenicline 1, varenicline, reference compound] 6.36

---

# measurement target: (α4)3(β2)2 (LS isoform) α4β2 nAChR WT (Homo sapiens, UniProt P17787+P43681)
# Construct: expressed in transfected cells; host or cells: Xenopus laevis oocytes, nuclear injection of cDNA in plasmid pCI (10 α4 : 1 β2 for LS, 1 α4 : 10 β2 for HS)
# protocol description: Two-electrode voltage clamp, Xenopus oocytes expressing LS α4β2 nAChR, wild type
# Format: cell-based
# cond: Table 3, LS (α4)3(β2)2; varenicline variants series; read-out: EC50
observable: EC50 (µM)
One number for each entry, in µM.

Complete the entry with EC50 for c1ccc2cc3c(cc2c1)C1CNCC3C1 11.5

---

# measurement target: (α4)3(β2)2 (LS isoform) α4β2 nAChR α4T183V (Homo sapiens, UniProt P17787+P43681, T183V)
# Construct: expressed in transfected cells; host or cells: Xenopus laevis oocytes, nuclear injection of cDNA in plasmid pCI
# protocol description: Two-electrode voltage clamp, Xenopus oocytes, LS α4β2 nAChR α4T183V
# Assay type: cell-based
observable: EC50 (µM)
Numbers only, in µM.

Given O=c1cccc2n1C[C@@H]1CNC[C@H]2C1 , report its EC50 on (α4)3(β2)2 (LS isoform) α4β2 nAChR α4T183V (Homo sapiens, UniProt P17787+P43681, T183V). 4.6

---

# measurement target: human α4β2 nAChR (Homo sapiens, UniProt P17787+P43681)
# Construct: expressed in transfected cells; host or cells: HEK 293 cells, transient transfection with JetPEI, membranes
# protocol description: [3H]epibatidine radioligand binding (saturation and competition), membranes of transfected HEK 293 cells
# cond: read-out: Ki α4β2
observable: pKi
One number for each entry, as −log10 of the molar value.

Complete the entry with pKi for c1ccc2nc3c(nc2c1)C1CNCC3C1 5.26
